target desc: KRas (G12V)·GppNHp (human) (UniProt P01116)
protocol details: fluorescence polarization; FITC-labeled peptide at fixed concentration, KRas(G12V) GppNHp titrated 0.5 to 5000 nM; one-site fit with Hill coefficient
No end group written: not given here. fluorescein maleimide = fluorescein maleimide (label on cysteine)
readout type: Kd (nM)

[[record]]
binder = "GC(fluorescein maleimide)GGPRRPRRPRYPGDDASIEDLHEYWARLWNYLAAVA [225-3 Y29A]"
readout_type = "Kd"
readout_number = 200


P: GC(fluorescein maleimide)GGPRRPRRPRYPGDDASIEDLAEYWARLWNYLYAVA [225-3 H18A]
Q: GC(fluorescein maleimide)GGPRRPARPRYPGDDASIEDLHEYWARLWNYLYAVA [225-3 R3A]
R: GC(fluorescein maleimide)GGPRRPRRPRYPGDAASIEDLHEYWARLWNYLYAVA [225-3 D11A]
S: GC(fluorescein maleimide)GGPRRPRRPAYPGDDASIEDLHEYWARLWNYLYAVA [225-3 R6A]
**Q:** Reorder: Kd, max to min. Write out the labels following the order that was asked for.
**A:** R, S, P, Q
